B1: TMEM106C (parent)
chain: SEQLVNFTGKAEMGGPFSYVYFFC

- Variants of: B1
- protocolSummary: protein stability index of a GFP-peptide fusion (GPS, HEK-293T) (PSI 1-6); higher = more stable;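 note: lentivirally expressed fusions sorted by FACS into six bins by GFP to DsRed ratio, PSI derived from sequencing read proportions per bin multiplied by bin number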
- reportedConditions: c terminus: a fixed tail appended
Parameter: protein stability index. Scope: all listed entries.
// no unit string in output, number only

Sample records with protein stability index:
C24F	3.13
V5L	3.05
Y19C	2.1

Q. Can you look up the measured protein stability index of `V5I` for me?
A. 3.42

Q. Given the entry `G15E` , report its measured protein stability index.
A. 3.6

Q. Which protein stability index is listed for `E12N` ?
A. 2.69

Q. Form field: reported protein stability index of `K10A`
A. 2.02
